tested on: HSkMC; assay: cytotoxicity call (relative viability < 0.9); details: 10 µM
The whole screen tested about 39,000 compounds, of which about 1,500 (3.8%) were called active. Many of the other results were omitted from the sample, so actives are more common in it than they were.
The categories you may choose from are active, inactive

Answer briefly: the call reported for Cc1ccc(S(=O)(=O)Nc2ccc3c(c2)CC(=O)N([C@H](C)CO)C[C@H](C)[C@H](CN(C)Cc2ccc(C(F)(F)F)cc2)O3)cc1 in this assay.
active

Answer briefly: the call reported for C[C@H](CO)N1C[C@H](C)[C@H](CN(C)Cc2ccc(Oc3ccccc3)cc2)Oc2cc(-c3ccncc3)ccc2S1(=O)=O in this assay.
inactive

Answer briefly: the call reported for Cc1ccc(S(=O)(=O)Nc2ccc3c(c2)CC(=O)N([C@H](C)CO)C[C@@H](C)[C@@H](CN(C)Cc2ccc(C(F)(F)F)cc2)O3)cc1 in this assay.
active

Answer briefly: the call reported for C=CCC[C@@H](Cc1ccc(F)cc1)C(=O)OC[C@@H](Cc1ccccc1)NC(=O)[C@H](CC=C)CC(=O)N(CCO)Cc1ccccc1 in this assay.
inactive

Answer briefly: the call reported for C[C@@H]1CN([C@H](C)CO)C(=O)Cc2cc(NS(C)(=O)=O)ccc2O[C@H]1CN(C)Cc1ccc(C(F)(F)F)cc1 in this assay.
inactive

Answer briefly: the call reported for C[C@@H]1CN([C@@H](C)CO)C(=O)Cc2cc(NS(C)(=O)=O)ccc2O[C@H]1CN(C)Cc1ccc(C(F)(F)F)cc1 in this assay.
inactive

Answer briefly: the call reported for Cc1ccc(S(=O)(=O)Nc2ccc3c(c2)CC(=O)N([C@H](C)CO)C[C@H](C)[C@@H](CN(C)Cc2ccc(C(F)(F)F)cc2)O3)cc1 in this assay.
inactive

----------
test system: HSkMC; assay: cytotoxicity call (relative viability < 0.9); conditions: 10 µM
Screen size: about 39,000 compounds; about 1,500 (3.8%) were called active. The sample as a whole holds a higher share of actives than the screen did.

# molecular-string, system-name, cytotoxicity call
measured = [
    ("CC(C)(C)C(=O)OCOP(=O)(OCOC(=O)C(C)(C)C)C(C)(Oc1ccc(O)cc1)P(=O)(OCOC(=O)C(C)(C)C)OCOC(=O)C(C)(C)C", "HSkMC", "inactive"),
    ("C[C@@H]1CCCCO[C@H](CN(C)S(=O)(=O)c2ccc(F)cc2)[C@@H](C)CN([C@H](C)CO)C(=O)c2cc(NC(=O)Nc3ccc(C(F)(F)F)cc3)ccc2O1", "HSkMC", "inactive"),
    ("Cc1ccc(S(=O)(=O)Nc2ccc3c(c2)C(=O)N([C@@H](C)CO)C[C@H](C)[C@H](CN(C)C(=O)Nc2ccccc2)OCCCC[C@H](C)O3)cc1", "HSkMC", "inactive"),
]

----------
system: HSkMC (human skeletal muscle cells); assay: cytotoxicity call (relative viability < 0.9); conditions: 10 µM
In all, about 39,000 compounds went through this assay and about 1,500 (3.8%) were called active. Many of the other results were omitted from the sample, so actives are more common in it than they were.
The categories you may choose from are T (active), F (inactive)

Look over these answered cases.
# molecular-string, class
measured = [
    ("C[C@@H]1CN([C@@H](C)CO)C(=O)c2cc(NC(=O)Nc3ccc(C(F)(F)F)cc3)ccc2O[C@H]1CN(C)Cc1ccc(Cl)c(Cl)c1", "F"),
    ("CO[C@@H]1CN(C)C(=O)c2cc(NC(=O)Nc3ccccc3F)ccc2OC[C@@H](C)N(Cc2ccccc2C(=O)O)C[C@@H]1C", "F"),
    ("C[C@@H]1CN([C@@H](C)CO)C(=O)c2cc(NC(=O)Nc3ccc(C(F)(F)F)cc3)ccc2O[C@@H]1CN(C)Cc1ccc(Cl)c(Cl)c1", "T"),
    ("C[C@H](CO)N1C[C@H](C)[C@@H](CN(C)Cc2ccc(C(=O)O)cc2)Oc2c(NC(=O)Nc3cccc4ccccc34)cccc2C1=O", "F"),
    ("O=C(CN1CCOCC1)N[C@H]1CC[C@H](CCNC(=O)Nc2cc(F)ccc2F)O[C@H]1CO", "F"),
    ("C[C@@H]1CN([C@H](C)CO)C(=O)c2cccc(NC(=O)C3CCOCC3)c2O[C@@H]1CN(C)S(=O)(=O)c1cccs1", "F"),
]

# next compound below
Answer briefly: the call reported for C[C@@H]1CN([C@@H](C)CO)C(=O)c2cccc(NC(=O)c3ccc(-c4nccs4)cc3)c2O[C@@H]1CN(C)Cc1ccccc1 in this assay.
F

Data origin: the antibiotic and cytotoxicity screens of Wong et al. (2023)
